IC50 values by entry
Molecular target: Human ASK1 (Homo sapiens)
Construct: expressed in transfected cells; host or cells: HEK293T-AP1
Sequence (Q99683 1-1374): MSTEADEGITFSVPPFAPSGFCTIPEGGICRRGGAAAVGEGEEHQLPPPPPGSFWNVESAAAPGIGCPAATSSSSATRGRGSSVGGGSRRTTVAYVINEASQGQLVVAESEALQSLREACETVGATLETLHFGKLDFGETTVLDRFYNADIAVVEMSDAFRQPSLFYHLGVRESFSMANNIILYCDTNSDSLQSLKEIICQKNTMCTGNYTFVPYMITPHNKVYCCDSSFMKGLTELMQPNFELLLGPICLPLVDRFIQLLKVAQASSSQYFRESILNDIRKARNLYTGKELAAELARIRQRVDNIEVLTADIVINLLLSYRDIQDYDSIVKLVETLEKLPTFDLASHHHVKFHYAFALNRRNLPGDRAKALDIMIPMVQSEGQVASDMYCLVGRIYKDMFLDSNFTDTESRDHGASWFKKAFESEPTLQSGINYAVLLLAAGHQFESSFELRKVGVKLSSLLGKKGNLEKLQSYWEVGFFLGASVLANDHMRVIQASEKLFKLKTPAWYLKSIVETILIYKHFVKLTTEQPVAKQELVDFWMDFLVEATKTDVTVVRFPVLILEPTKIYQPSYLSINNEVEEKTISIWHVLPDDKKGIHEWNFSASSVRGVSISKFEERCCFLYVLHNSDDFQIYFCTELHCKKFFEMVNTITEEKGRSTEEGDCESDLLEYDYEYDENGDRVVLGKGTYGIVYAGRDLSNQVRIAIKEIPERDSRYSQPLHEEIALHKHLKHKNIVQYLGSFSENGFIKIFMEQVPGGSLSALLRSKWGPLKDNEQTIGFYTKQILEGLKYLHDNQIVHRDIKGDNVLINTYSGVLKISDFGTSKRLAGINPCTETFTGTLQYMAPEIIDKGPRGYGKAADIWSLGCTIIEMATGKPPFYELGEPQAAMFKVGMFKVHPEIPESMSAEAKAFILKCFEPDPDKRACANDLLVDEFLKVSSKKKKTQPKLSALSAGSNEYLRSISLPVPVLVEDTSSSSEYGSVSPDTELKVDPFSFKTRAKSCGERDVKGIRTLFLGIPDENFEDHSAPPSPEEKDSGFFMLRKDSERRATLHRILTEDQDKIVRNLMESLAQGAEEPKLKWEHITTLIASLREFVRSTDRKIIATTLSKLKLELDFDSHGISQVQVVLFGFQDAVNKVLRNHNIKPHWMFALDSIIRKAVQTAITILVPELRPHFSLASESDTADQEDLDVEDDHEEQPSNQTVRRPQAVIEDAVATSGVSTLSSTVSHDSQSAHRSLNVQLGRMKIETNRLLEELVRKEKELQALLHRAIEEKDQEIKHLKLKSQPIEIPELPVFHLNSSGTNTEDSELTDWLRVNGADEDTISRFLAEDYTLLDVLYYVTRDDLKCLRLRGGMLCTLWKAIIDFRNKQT
Experiment: ASK1 Cell Based Assay (phospho p38 read out in hASK1 transfected HEK293T-AP1 cells)
Conditions: HEK293T-AP1 cells, 1 mM hydrogen peroxide, phospho p38; read-out: Cell Based Assay IC50

// IC50 lookup, key: CC(C)n1cnnc1-c1cccc(N2CCN(c3ccc(C#N)cc3)C2=O)n1 [Example 1035]
> 10 µM

Recorded IC50 of CC1COCC(=O)N1c1ccc(N2CCN(c3cccc(-c4nncn4C(C)C)n3)C2=O)cc1 (centres unmarked) [Example 1068] , please.
> 0.1 µM

Could you tell me which IC50 is on file for CC(C)n1cnnc1-c1cccc(N2CCN(c3ccc(OCCS(C)(=O)=O)cc3)C2=O)n1 [Example 1126] ?
> 1 µM

Find the recorded IC50 belonging to CC(C)n1cnnc1-c1cccc(N2CCN(c3ccc(C(=O)N4CCOCC4)cc3)C2=O)n1 [Example 1077] and report it.
> 0.1 µM

// next item, IC50 requested
Would you mind telling me what IC50 value was observed for CC(C)n1cnnc1-c1cccc(N2CCN(c3ccc(S(C)(=O)=O)c(F)c3)C2=O)n1 [Example 1038] ?
< 1 µM

Source of measurements: patent US20220332700A1
